// values below are reported reverse-splicing fitness
B1: Azoarcus group I ribozyme (parent)
chain: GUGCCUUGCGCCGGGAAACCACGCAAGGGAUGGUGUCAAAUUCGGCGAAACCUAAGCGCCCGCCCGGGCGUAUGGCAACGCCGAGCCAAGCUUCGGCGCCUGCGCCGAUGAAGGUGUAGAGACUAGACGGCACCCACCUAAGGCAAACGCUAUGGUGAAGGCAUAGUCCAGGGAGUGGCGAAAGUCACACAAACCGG

# Variants of: B1
# test-method-notes: reverse-splicing fitness (ratio to wild type); higher = more active; in vitro selection; Mg2+ level not given
Write the number on its own, no unit after it.

variant-description: A111U C150A C169U
reverse-splicing fitness: 0.0167

variant-description: C82G A111C A120G C150A C169U
reverse-splicing fitness: 0.00859

variant-description: C82G A145G C150U C169U
reverse-splicing fitness: 0.0159

variant-description: C82U A111U A120U A145U C169A U176A
reverse-splicing fitness: 0.00233

variant-description: C82U A111U A120C C150U C169A U176A
reverse-splicing fitness: 0.015

## Input Can you look up the measured reverse-splicing fitness of C82U A111C A120G C150A C169A U176C for me?
## Output 0.0186

## Input Record request: reverse-splicing fitness value, item A120U A145C U176A
## Output 0.634

## Input Return reported reverse-splicing fitness; argument: C82A A111G A120U C150U C169G U176C
## Output 0.00437

## Input // returns reported reverse-splicing fitness for input A111G A120C C150G C169G U176G
## Output 0.00385

## Input State the recorded reverse-splicing fitness for this entry: C82G A111G A120C A145G C169A U176C
## Output 0.0188

## Input Give its reverse-splicing fitness value. Item: C82U A111G A120C A145U C169U
## Output 0.0104

Values from the RNAGym collection of RNA variant scans (doi:10.1093/molbev/msab373)
